Where do these numbers come from? They come from PubChem BioAssay AID1963986.

# Test system: 171881-019-R-J1-PDC tumor spheroid viability;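 further: spheroids exposed to compound for 7 days before viability read; 100% = DMSO vehicle-treated spheroids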
# protocol_summary: Anticancer human tumor 171881-019-R-J1-PDC patient-derived invasive breast carcinoma cell line growth inhibition [PI3K]
# experimental_context: second compound 0.316 µM; first compound 0.001 µM; stronger effect = lower value; spheroids with HUVEC and MSC
property_name: viability, T/C (%)
Give just the number in %; leave the unit off.

Dear colleague, please send me the reported viability, T/C for CC(C)n1nc(-c2ccc3oc(N)nc3c2)c2c(N)ncnc21 + CC(Nc1ncnc2nc[nH]c12)c1cc2cccc(Cl)c2c(=O)n1-c1ccccc1 when you can.
94.3

Dear colleague, please send me the reported viability, T/C for CC(C)n1nc(-c2ccc3oc(N)nc3c2)c2c(N)ncnc21 + COc1c(OCCCN2CCOCC2)ccc2c3n(c(=NC(=O)c4cnc(N)nc4)nc12)CCN3 when you can.
2.41

Dear colleague, please send me the reported viability, T/C for CC(=O)c1c(C)c2cnc(Nc3ccc(N4CCNCC4)cn3)nc2n(C2CCCC2)c1=O + Cc1nc(NC(=O)N2CCCC2C(N)=O)sc1-c1ccnc(C(C)(C)C(F)(F)F)c1 when you can.
61.5
